# System: UACC-62 melanoma
# assay-name: NCI tumour cell line growth inhibition, 48 h; in the data active means GI50 below about 0.43 µM; inactive means the rest
Labels: TRUE for active, FALSE for inactive

| chemical-smiles | class |
| --- | --- |
| O=C(Nc1ccc(-n2cc(-c3ccncc3)c(-c3ccc(O)c(Cl)c3)n2)cc1)c1cc(C(F)(F)F)cc(C(F)(F)F)c1 | FALSE |
| C=C1C(=O)O[C@H]2[C@H]1CC/C(CNC(=O)c1cccc3ccccc13)=C\CC[C@@]1(C)O[C@@H]21 | FALSE |
| CCn1c2ccccc2c2cc(/C=C(/C#N)C(N)=S)ccc21 | TRUE |
| COc1ccc(-c2nnc(COc3ccc(Cl)cc3Cl)o2)cc1OC | FALSE |
| COc1cccc(/C=C/c2ccc(S(N)(=O)=O)cc2)c1 | FALSE |

----------
Catalogue of TGI values
# Tested on: RPMI-8226 leukemia
# assay-name: NCI tumour cell line growth inhibition, 48 h

| molecule | test-system | unit-abbrev | prefix-operator | TGI |
| --- | --- | --- | --- | --- |
| COc1cccc(/C=C/c2ccc(S(N)(=O)=O)cc2)c1 | RPMI-8226 leukemia | µM | = | 19.8 |
| O=C(/C=C/c1cc2ccccc2[nH]c1=O)c1ccc(Cl)cc1 | RPMI-8226 leukemia | µM | = | 50.1 |
| c1cc(-c2ccc(-c3ccc(-c4ccc(-c5cccc6nsnc56)[nH]4)c4nsnc34)[nH]2)c2nsnc2c1 | RPMI-8226 leukemia | µM | > | 100 |
| O=C1NC2c3c(I)sc(I)c3/C(=N\O)C2O1 (stereo not given) | RPMI-8226 leukemia | µM | > | 100 |
| Cc1c(NC(=O)/C(=N/NC(=S)N=N)C2C(=O)CC(C)(C)CC2=O)c(O)c2ccccc2c1O | RPMI-8226 leukemia | µM | = | 56.7 |

----------
# System: RPMI-8226 leukemia
# assay-name: NCI tumour cell line growth inhibition, 48 h; in the data active = GI50 below about 0.43 µM; inactive = the rest
Labels: active, inactive

| chemical-smiles | class |
| --- | --- |
| O=C(Nc1ccc(-n2cc(-c3ccncc3)c(-c3ccc(O)c(Cl)c3)n2)cc1)c1cc(C(F)(F)F)cc(C(F)(F)F)c1 | inactive |
| C#C[C@]1(O)CC[C@H]2[C@@H]3CC=C4c5nc(Nc6ncccn6)sc5CC[C@]4(C)[C@H]3CC[C@@]21C | active |
| C=CCn1c(SCC(=O)Nc2ccc(C(=O)/C=C/c3cc(OC)c(OC)c(OC)c3)cc2)nnc1-c1ccc(Cl)cc1 | active |
| COc1ccc(-c2c(-c3cc(OC)c(OC)c(OC)c3)nc3sc(C4CC4)nn23)cc1OC | inactive |

----------
# System: NCI-H226 lung
# assay-name: NCI tumour cell line growth inhibition, 48 h
Catalogue of TGI values
property: TGI

| chemical-smiles | result |
| --- | --- |
| CC1=C(C(=O)Nc2ccc([N+](=O)[O-])cc2)C(c2cccc([N+](=O)[O-])c2)C(C(=O)Nc2ccc([N+](=O)[O-])cc2)=C(C)N1 | > 100 µM |
| O=C1NC(=O)/C(=C/c2c(Cl)nc3sccn23)S1 | > 100 µM |
| O=C(NO)C(=O)Nc1cc(Cl)ccc1Cl | > 100 µM |
| Cc1ccc(C)c2c1C/C(=C\c1ccccc1C(=O)O)C2=O | 80.5 µM |
| O=C(ON=c1c2ccccc2ccc2ccccc12)c1ccccc1 | 57.9 µM |

----------
Catalogue of TGI values
# Tested on: NCI-H522 lung
# assay-name: NCI tumour cell line growth inhibition, 48 h

| molecule | unit-abbrev | prefix-operator | TGI |
| --- | --- | --- | --- |
| Oc1ccc(-c2nc3ccc4ccccc4c3c3c2CCCC3)c(O)c1 | µM | = | 41.1 |
| O=C1C(Cl)=C(Nc2cccc(O)c2)C(=O)N1CCc1ccccc1 | µM | = | 29.2 |
| CCC1CC(C)C(O)/C=C/C=C/CC(C)OC(=O)CC(O)C(OC)C1OC1OC(C)CC(O)(C(C)=O)C1O (configuration not stated) | µM | = | 51.4 |
| COC(=O)[C@]12CC[C@H]3CN(C(=O)OCc4ccccc4)[C@H]([C@H]31)[C@H](c1ccco1)N2 | µM | = | 39.1 |
| NCCc1c[nH]c2ccc(OC(=O)C(=O)O)cc12 | µM | > | 100 |
| COc1ccc(/C=C/c2nsc(/C=C/c3ccc(OC)cc3)n2)cc1 | µM | > | 100 |
| Cc1nn(C(=O)c2ccccc2O)c2c1C(c1ccccc1O)SC(N)=N2 (configuration not stated) | µM | > | 10 |
| CC1(C)CCC2(CC1)N[C@@H](C(=O)N[C@@H]1CC[C@@H](C(N)=O)OC1)[C@H](c1ccnc(Cl)c1F)[C@]21C(=O)Nc2cc(Cl)ccc21 | µM | = | 4.46 |
| NC(=S)N/N=C/c1c[nH]c2ccccc12 | µM | > | 100 |
| CCc1c(-c2ccc(OC)cc2)c(=O)oc2cc(O)ccc12 | µM | > | 100 |
| COc1cc(/C=C/C(=O)Oc2ccc(NC(C)=O)cc2)ccc1C(=O)OCc1ccccc1 | µM | > | 100 |
| Fc1c(F)c(F)c2c(c1F)CSc1nc3ccccc3n1-2 | µM | > | 100 |

----------
Catalogue of TGI values
# Test system: RPMI-8226 leukemia
# assay-name: NCI tumour cell line growth inhibition, 48 h
property: TGI

| compound | test-system | result |
| --- | --- | --- |
| COC(=O)CCC1=NOC(CC2CC(CCC(=O)OC)=NO2)C1 (stereo not given) | RPMI-8226 leukemia | > 100 µM |
| CC1CN=C(N(Cc2ccc(F)cc2)C(=O)Nc2ccc(Cl)cc2)S1 (stereo not given) | RPMI-8226 leukemia | > 100 µM |
| COc1cc(/C=C/C(=O)Nc2ccc3c(c2)/C(=C\c2cccn2C)C(=O)N3)cc(OC)c1OC | RPMI-8226 leukemia | 4.04 µM |
| CCN(C(=N)C#N)c1ccccc1 | RPMI-8226 leukemia | > 100 µM |
| CN(C)CCN=C1c2ccccc2-c2c(=O)n(CCN(C)C)c(O)c3cccc1c23 | RPMI-8226 leukemia | 12.9 µM |
| CC(CCOc1c2ccoc2cc2oc(=O)ccc12)C1=CC(=O)C(C)(C)O1 (stereo not given) | RPMI-8226 leukemia | > 100 µM |
| C=CCn1c(SCC(=O)Nc2ccc(C(=O)/C=C/c3cc(OC)c(OC)c(OC)c3)cc2)nnc1-c1ccc(Cl)cc1 | RPMI-8226 leukemia | 1.03 µM |
| O=[N+]([O-])c1ccc2[nH]c3c(-c4ccccc4)nccc3c2c1 | RPMI-8226 leukemia | > 100 µM |
| Cn1c(C(O)C2(c3cccnc3)SCCCS2)cc2ccccc21 (stereo not given) | RPMI-8226 leukemia | > 100 µM |
| Fc1c(F)c(F)c2c(c1F)CSc1nc3ccccc3n1-2 | RPMI-8226 leukemia | > 100 µM |

----------
# Test system: SNB-75 CNS
# assay-name: NCI tumour cell line growth inhibition, 48 h
*1 amine or outer side, *2 acyl side, *3 side chain or, on linkers, in order; H or OH if unused. Where a SMILES comes first, the peptide text is derived from it. [ ]: non-standard residue; d: D form. ξ: configuration not given here. Ile(3ξ) = CCC(C)[C@H](N)C(=O)O; X33 = C=CCC(O[*:1])C(=O)[*:2]; NMeV = CN[C@H](C(=O)O)C(C)C; NMeA = CN[C@@H](C)C(=O)O; βAla = NCCC(=O)O

| compound | TGI |
| --- | --- |
| COC(=O)Cc1cccc2c1CCC2=O | > 100 µM |
| C/C(=N\NC(=S)Nc1ccccc1)c1nc2ncccc2[nH]1 | 79.2 µM |
| CCCCCOc1ccc(C=Nc2ccc(-c3ccc(N=Cc4ccc(OCCCCC)cc4)c(OC)c3)cc2OC)cc1 | > 100 µM |
| CCOC(=O)/C(=C\c1ccccc1)C(=O)CCN1CCOCC1 | 38.3 µM |
| CCCCc1c2c(nc3c1CCCC3=O)C(=O)CCC2 | > 100 µM |
| C=CCC1OC(=O)CCNC(=O)[C@H](C)N(C)C(=O)[C@H](C(C)C)N(C)C(=O)[C@H](C(C)CC)NC(=O)[C@@H]2CCCN2C1=O (stereo not given in full) (cyclo([Ile(3ξ)][NMeV][NMeA][βAla][X33]P)) | > 90.5 µM |
| COc1ccc2c(c1)oc1c(C)c3c(c(C)c12)C(=O)N(N)C3=O | > 100 µM |
| COc1cc(C2NCCC(c3ccccc3)(c3ccccc3)N2)cc(OC)c1OC (stereo not given) | > 100 µM |
| CC(C)N(C(=O)C12C3C4C1C1C2C3C41C(=O)O)C(C)C (stereo not given) | > 100 µM |
| O=C1C=CC(=O)c2c(O)c(N3CCN(c4ccccn4)CC3)c(Cl)c(O)c21 | 3.43 µM |
| CC1=C(C(=O)Nc2ccc([N+](=O)[O-])cc2)C(c2cccc([N+](=O)[O-])c2)C(C(=O)Nc2ccc([N+](=O)[O-])cc2)=C(C)N1 | > 100 µM |
| CCN(CC)CCCC(CO)Nc1ccnc2cc(Cl)ccc12 (stereo not given) | > 100 µM |
| Cc1nc2c(n1CC(C)C)C(=O)c1ccccc1C2=O | > 100 µM |
| C[C@]12CC[C@H](O)CC1=CC[C@@H]1C2CC[C@]2(C)c3n[nH]nc3CC12 (stereo not given in full) | > 100 µM |
| CC1(C)OC(=O)C(c2cccs2)C(=O)O1 | > 100 µM |
| O=[N+]([O-])c1ccc(C2N3CCCCC3[C@H]3CCCCN23)cc1 (stereo not given in full) | > 100 µM |
| CCCCC(=O)OC[n+]1cccc(-c2c(COC(=O)NC(C)C)c(COC(=O)NC(C)C)c3n2CCC3)c1 | > 100 µM |
| O=c1c2c([nH]c3ccccc13)CCCC2 | > 100 µM |
| CCOC(=O)C(C(CC(=O)OC)NC(=O)OCc1ccccc1)C1(C)OCCO1 (stereo not given) | > 100 µM |
| O=C(Nc1ccc(-n2cc(-c3ccncc3)c(-c3ccc(O)c(Cl)c3)n2)cc1)c1cc(C(F)(F)F)cc(C(F)(F)F)c1 | > 25 µM |
